TGT: Bone morphogenetic protein 2 (Homo sapiens)
Sequence (whole entry): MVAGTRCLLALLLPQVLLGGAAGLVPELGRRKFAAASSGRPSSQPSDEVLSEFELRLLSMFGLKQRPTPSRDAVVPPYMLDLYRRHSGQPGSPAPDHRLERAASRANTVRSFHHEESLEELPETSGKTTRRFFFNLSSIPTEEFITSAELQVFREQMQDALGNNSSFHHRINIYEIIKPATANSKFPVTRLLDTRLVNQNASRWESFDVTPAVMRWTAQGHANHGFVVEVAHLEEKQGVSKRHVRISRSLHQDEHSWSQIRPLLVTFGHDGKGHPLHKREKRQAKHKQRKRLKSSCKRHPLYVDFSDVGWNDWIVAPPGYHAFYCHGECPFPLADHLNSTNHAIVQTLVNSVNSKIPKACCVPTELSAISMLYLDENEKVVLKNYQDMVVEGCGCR
ASSAY INFO: Increase in BMP2-mediated osteoblastogenesis in mouse C2C12 cells assessed as increase in BMP4 mRNA level at 10 uM by SYBR-based RT-PCR
Type: cell-based
Activity calls are given as the source filed them. The calls are words filed in the database; no cut-off is given here.
MEASURED ENDPOINT: Activity

INSERT INTO assay_data (smi, measured_endpoint, measured_value) VALUES
  ('CCCCOC(=O)c1ccc(N)cc1', 'Activity', 'Active'),
  ('COC(=O)c1ccc(N)cc1', 'Activity', 'Active'),
  ('CCCCOC(=O)c1ccc(NC(C)=O)cc1', 'Activity', 'Active'),
  ('CC(C)OC(=O)c1ccc(N)cc1', 'Activity', 'Active');
